Reference for the values: the supplement of paper PMC9663587

Known GRmax, 72 h of a selection of molecules
tested on: HS578T; experiment: GRmax, 72 h; higher = less effect
Could you give me the number in GR? Just the number is fine.

Worked set:
molecule	unit.string	GRmax, 72 h
CN(C)C/C=C/C(=O)Nc1ccc(O[C@@H]2CCC[C@@H](Nc3ncc(Cl)c(-c4c[nH]c5ccccc45)n3)C2)cc1 [BSJ-01-175] (max 10 µM)	GR	-0.694
COc1cc([C@@H]2c3cc4c(cc3[C@@H](O[C@@H]3O[C@@H]5CO[C@@H](C)O[C@H]5[C@H](O)[C@H]3O)[C@H]3COC(=O)[C@H]23)OCO4)cc(OC)c1O [Etoposide] (max 10 µM)	GR	-0.136
CCc1cncnc1N1CCN(Cc2nc3ccc(C(F)(F)F)cc3[nH]2)CC1 (max 10 µM)	GR	0.914
CC1(N)CCN(c2cnc(-c3cccc(Cl)c3Cl)c(N)n2)CC1 [SHP099] (max 10 µM)	GR	0.632
O=C(CCCCCCC(=O)Nc1ccccc1)NO [Vorinostat] (max 10 µM)	GR	-0.169
NC1(C(=O)N[C@@H](CCO)c2ccc(Cl)cc2)CCN(c2nc[nH]c3nccc2-3)CC1 [AZD5363] (max 10 µM)	GR	0.349

Return GRmax, 72 h for the following molecule: CN1CC[C@H](c2c(O)cc(O)c3c(=O)cc(-c4ccccc4Cl)oc23)[C@H](O)C1 [Flavopiridol] (max 1 µM)
-0.256

Specify reported GRmax, 72 h for the molecule shown: CC(C)NC[C@@H](C(=O)N1CCN(c2ncnc3c2[C@H](C)C[C@H]3O)CC1)c1ccc(Cl)cc1 [Ipatasertib/GDC0068] (max 10 µM)
0.442

Fill in reported GRmax, 72 h for this entry: Nc1ccc(-c2ccc3ncc4ccc(=O)n(-c5cccc(C(F)(F)F)c5)c4c3c2)cn1 [Torin2] (max 1 µM)
-0.217

Answer with reported GRmax, 72 h of CC(=O)c1c(C)c2cnc(Nc3ccc(N4CCN(CCOCCOCCOCCNC(=O)COc5cccc6c5C(=O)N(C5CCC(=O)NC5=O)C6=O)CC4)cn3)nc2n(C2CCCC2)c1=O (centres undefined) [BSJ-03-123] (max 10 µM)
-0.263

Supply reported GRmax, 72 h belonging to this molecule: O=C1NC(=NCc2cccs2)SC1=Cc1ccc2ncccc2c1 [R0-3306] (max 10 µM)
-0.0503

Please look at this molecule and report its GRmax, 72 h: CCc1cnn2c(NCc3ccc[n+]([O-])c3)cc(N3CCCC[C@H]3CCO)nc12 (max 1 µM)
-0.239

Complete the entry with GRmax, 72 h for CCC(=O)Nc1ccc(C(=O)Nc2ccc(Nc3ncc4c(n3)N(C)c3ccc(C)cc3C(=O)N4C)cc2)cc1 [FMF-03-145-1]
-0.183

Read the entry CS(=O)(=O)N1CCN(Cc2cc3nc(-c4cccc5[nH]ncc45)nc(N4CCOCC4)c3s2)CC1 [Pictilisib/GDC0941] (max 10 µM) and write its reported GRmax, 72 h.
0.0345

###

test system: MDAMB436; assay: GRmax, 72 h; higher = less effect;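 note: breast cell lines in 384-well plates, nine doses across a 10^4 range, Dye Drop imaging of viable cells vs DMSO and time-zero plates, GR 0 means no net growth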
Please note: true (1) applies when GRmax, 72 h is -0.02 GR or greater, and false (0) applies otherwise.

Solved cases below.
compound	classification
CO[C@H]1C[C@@H]2CC[C@@H](C)[C@@](O)(O2)C(=O)C(=O)N2CCCC[C@H]2C(=O)O[C@H]([C@H](C)C[C@@H]2CC[C@@H](OCCO)[C@H](OC)C2)CC(=O)[C@H](C)/C=C(\C)[C@@H](O)[C@@H](OC)C(=O)[C@H](C)C[C@H](C)/C=C/C=C/C=C/1C [Everolimus] (max 10 µM)	true (1)
CC(=O)c1c(C)c2cnc(Nc3ccc(N4CCNCC4)cn3)nc2n(C2CCCC2)c1=O (max 3.162 µM)	true (1)
O=C1NC(=O)[C@@H](c2cn3c4c(cccc24)CCC3)[C@@H]1c1c[nH]c2ccccc12 [Tivantinib/ARQ197] (max 10 µM)	false (0)
C=CC(=O)Nc1ccc(C(=O)Nc2[nH]nc3c2CN(C(=O)N[C@H](CN(C)C)c2ccccc2)C3(C)C)cc1 [YKL-5-124] (max 10 µM)	true (1)
CC(=O)O[C@H]1C(=O)[C@@]2(C)[C@H]([C@H](OC(=O)c3ccccc3)[C@]3(O)C[C@H](OC(=O)[C@H](O)[C@@H](NC(=O)c4ccccc4)c4ccccc4)C(C)=C1C3(C)C)[C@]1(OC(C)=O)CO[C@@H]1C[C@@H]2O [Paclitaxel] (max 1 µM)	false (0)

Kindly determine if GRmax, 72 h recorded for CN(C)CC[C@H](CSc1ccccc1)Nc1ccc(S(=O)(=O)NC(=O)c2ccc(N3CCN(Cc4ccccc4-c4ccc(Cl)cc4)CC3)cc2)cc1[N+](=O)[O-] [ABT-737] (max 10 µM) is above or exactly -0.02 GR.
true (1)

Could you verify whether the entry "COc1ccc2c(c1)[C@]1(C[C@H]1c1ccc3c(/C=C/c4ccc(CN5C[C@@H](C)O[C@@H](C)C5)cc4)n[nH]c3c1)C(=O)N2" shows GRmax, 72 h of no less than -0.02 GR?
false (0)

For this compound, is measured GRmax, 72 h -0.02 GR or higher? CC[C@@]1(O)C(=O)OCc2c1cc1n(c2=O)Cc2cc3c(CN(C)C)c(O)ccc3nc2-1 [Topotecan] (max 10 µM)
false (0)
